target: Trypsin (UniProt P00760)
Construct: IC50 (Estimated from single concentration measurement); Ki
assay-remarks: Trypsin inhibition
Assay type: biochemical
run-parameters: Table 4b, 100 μM inhibitor
List of Percentage activity with 100 μM inhibitor values.
endpoint-name: Percentage activity with 100 μM inhibitor

> print(dat)
                         chemical.structure  test.result
1  O=S(=O)(NCB(O)O)c1ccc(-c2nn[nH]n2)c(Cl)c1           95
2  O=S(=O)(NCB(O)O)c1ccc(-c2nnn[nH]2)cc1C(F)(F)F           96
3     O=S(=O)(NCB(O)O)c1ccc(-c2nnn[nH]2)cc1           95
4         O=C(O)c1cccc(CS(=O)(=O)NCB(O)O)c1           95
5     O=S(=O)(NCB(O)O)c1ccc(-c2nn[nH]n2)nc1           95
6   O=S(=O)(NCB(O)O)c1ccc(-c2nn[nH]n2)cc1Cl           95

----------
Known Ki of a selection of molecules
target: Trypsin (UniProt P00760)
Sequence (P00760 1-246): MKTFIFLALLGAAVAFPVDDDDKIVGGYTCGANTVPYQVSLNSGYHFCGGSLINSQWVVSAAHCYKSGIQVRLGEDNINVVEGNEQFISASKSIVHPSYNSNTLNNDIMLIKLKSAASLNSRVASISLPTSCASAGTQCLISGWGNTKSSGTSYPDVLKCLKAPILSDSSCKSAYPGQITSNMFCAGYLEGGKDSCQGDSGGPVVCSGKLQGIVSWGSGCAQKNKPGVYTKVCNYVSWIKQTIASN
endpoint-name: Ki (µM)

> print(dat)
                         chemical.structure  test.result
1  O=S(=O)(NCB(O)O)c1ccc(-c2nnn[nH]2)cc1C(F)(F)F          442
2     O=S(=O)(NCB(O)O)c1ccc(-c2nn[nH]n2)nc1          350
3         O=C(O)c1cccc(CS(=O)(=O)NCB(O)O)c1          350
4     O=S(=O)(NCB(O)O)c1ccc(-c2nnn[nH]2)cc1          350
5  O=S(=O)(NCB(O)O)c1ccc(-c2nn[nH]n2)c(Cl)c1          350
6   O=S(=O)(NCB(O)O)c1ccc(-c2nn[nH]n2)cc1Cl          350

----------
target: α-chymotrypsin (bovine pancreatic) (Bos taurus, UniProt P00766)
Construct: purchased Sigma-Aldrich
assay-remarks: α-Chymotrypsin inhibition
Format: biochemical
run-parameters: Table 4b, 100 μM inhibitor; read-out: Percentage activity with 100 μM inhibitor
Reported activity at 100 µM by item:
endpoint-name: activity at 100 µM (%)

> print(dat)
                                   molecule       endpoint.name  test.result
1  O=S(=O)(NCB(O)O)c1ccc(-c2nn[nH]n2)nc1 [CR161]  activity at 100 µM           90
2  O=S(=O)(NCB(O)O)c1ccc(-c2nnn[nH]2)cc1C(F)(F)F [CR192]  activity at 100 µM           85
3  O=S(=O)(NCB(O)O)c1ccc(-c2nn[nH]n2)c(Cl)c1 [CR191]  activity at 100 µM           85
4  O=S(=O)(NCB(O)O)c1ccc(-c2nnn[nH]2)cc1 [CR157]  activity at 100 µM           90
5  O=S(=O)(NCB(O)O)c1ccc(-c2nn[nH]n2)cc1Cl [CR190]  activity at 100 µM           85
6  O=C(O)c1cccc(CS(=O)(=O)NCB(O)O)c1 [CR167]  activity at 100 µM           99

----------
# inhibition at 100 µM listing for each entry below
target: α-chymotrypsin (bovine pancreatic) (Bos taurus, UniProt P00766)
Construct: purchased Sigma-Aldrich
assay-remarks: α-Chymotrypsin inhibition
Assay type: biochemical
run-parameters: read-out: Percentage inhibition with 100 μM inhibitor
endpoint-name: inhibition at 100 µM (%)

> print(dat)
                                   compound  unit.symbol  test.result
1  O=S(=O)(NCB(O)O)c1ccc(-c2nnn[nH]2)cc1 [CR157]            %           10
2  O=S(=O)(NCB(O)O)c1ccc(-c2nn[nH]n2)cc1Cl [CR190]            %           15
3  O=S(=O)(NCB(O)O)c1ccc(-c2nnn[nH]2)cc1C(F)(F)F [CR192]            %           15
4  O=C(O)c1cccc(CS(=O)(=O)NCB(O)O)c1 [CR167]            %            1
5  O=S(=O)(NCB(O)O)c1ccc(-c2nn[nH]n2)nc1 [CR161]            %           10
6  O=S(=O)(NCB(O)O)c1ccc(-c2nn[nH]n2)c(Cl)c1 [CR191]            %           15

----------
target: Trypsin (UniProt P00760)
Construct: IC50 (Estimated from single concentration measurement); Ki
Sequence (P00760 1-246): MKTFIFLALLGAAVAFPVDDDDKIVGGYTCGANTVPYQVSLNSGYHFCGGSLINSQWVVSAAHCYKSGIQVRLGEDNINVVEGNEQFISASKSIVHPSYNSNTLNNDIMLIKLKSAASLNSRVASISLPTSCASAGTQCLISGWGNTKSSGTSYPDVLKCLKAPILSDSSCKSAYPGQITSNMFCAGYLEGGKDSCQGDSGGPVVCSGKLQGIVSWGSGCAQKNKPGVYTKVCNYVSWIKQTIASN
assay-remarks: Trypsin inhibition
Format: biochemical
run-parameters: Table 4c, 100 μM inhibitor
Measured Percentage inhibition with 100 μM inhibitor values are reported for all entries that follow.
endpoint-name: Percentage inhibition with 100 μM inhibitor

> print(dat)
                         chemical.structure  test.result
1     O=S(=O)(NCB(O)O)c1ccc(-c2nnn[nH]2)cc1            5
2  O=S(=O)(NCB(O)O)c1ccc(-c2nnn[nH]2)cc1C(F)(F)F            4
3   O=S(=O)(NCB(O)O)c1ccc(-c2nn[nH]n2)cc1Cl            5
4  O=S(=O)(NCB(O)O)c1ccc(-c2nn[nH]n2)c(Cl)c1            5
5     O=S(=O)(NCB(O)O)c1ccc(-c2nn[nH]n2)nc1            5
6         O=C(O)c1cccc(CS(=O)(=O)NCB(O)O)c1            5

----------
target: cruzain (Trypanosoma cruzi, UniProt P25779)
Sequence (P25779 123-337 limits assumed): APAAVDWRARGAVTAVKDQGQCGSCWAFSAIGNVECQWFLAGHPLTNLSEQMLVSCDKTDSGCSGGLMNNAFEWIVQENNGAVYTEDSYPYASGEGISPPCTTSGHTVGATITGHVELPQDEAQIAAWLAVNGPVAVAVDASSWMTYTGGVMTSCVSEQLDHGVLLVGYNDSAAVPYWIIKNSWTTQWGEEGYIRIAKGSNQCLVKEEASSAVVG
assay-remarks: Cruzain inhibition, Z-FR-AMC cleavage
Format: biochemical
pIC50: −log10 of the molar value.
endpoint-name: pIC50

> print(dat)
                                 molecule  test.result
1  O=S(=O)(Cc1ccccc1)NCB(O)O [Compound 4]       < 3.30

----------
Measured pKi, listed per entry for reference.
target: α-chymotrypsin (bovine pancreatic) (Bos taurus, UniProt P00766)
pKi: −log10 of the molar value.
endpoint-name: pKi

> print(dat)
                                   compound  endpoint.name  test.result
1  O=S(=O)(NCB(O)O)c1ccc(-c2nn[nH]n2)cc1Cl [CR190]            pKi         3.85
2  O=S(=O)(NCB(O)O)c1ccc(-c2nn[nH]n2)c(Cl)c1 [CR191]            pKi         3.85
3  O=S(=O)(NCB(O)O)c1ccc(-c2nn[nH]n2)nc1 [CR161]            pKi         3.65
4  O=C(O)c1cccc(CS(=O)(=O)NCB(O)O)c1 [CR167]            pKi         2.61
5  O=S(=O)(NCB(O)O)c1ccc(-c2nnn[nH]2)cc1C(F)(F)F [CR192]            pKi         3.85
6  O=S(=O)(NCB(O)O)c1ccc(-c2nnn[nH]2)cc1 [CR157]            pKi         3.65

----------
target: AmpC β-lactamase (Escherichia coli)
Construct: made in house
assay-remarks: biochemical
Type: biochemical
run-parameters: Table 5; read-out: Ki
endpoint-name: Ki (nM)

> print(dat)
                         chemical.structure  endpoint.name  unit.symbol  test.result
1  O=S(=O)(NCB(O)O)c1ccc(-c2nnn[nH]2)cc1C(F)(F)F             Ki           nM         0.05

----------
target: AmpC β-lactamase (Escherichia coli, UniProt P00811)
Construct: made in house
Sequence (P00811 20-377): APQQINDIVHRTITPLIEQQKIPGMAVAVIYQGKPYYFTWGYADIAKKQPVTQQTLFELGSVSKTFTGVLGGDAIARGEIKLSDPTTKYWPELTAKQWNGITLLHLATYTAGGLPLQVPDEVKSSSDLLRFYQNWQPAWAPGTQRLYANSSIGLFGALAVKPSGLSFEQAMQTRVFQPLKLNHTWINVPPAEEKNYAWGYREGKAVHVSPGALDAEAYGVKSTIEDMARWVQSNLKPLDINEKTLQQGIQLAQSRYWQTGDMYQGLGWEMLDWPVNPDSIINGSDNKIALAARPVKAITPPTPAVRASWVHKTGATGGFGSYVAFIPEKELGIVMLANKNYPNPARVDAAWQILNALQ
assay-remarks: biochemical
Format: biochemical
run-parameters: Ki, running text and FIG. 18; substrate CENTA 105 μM
endpoint-name: Ki (nM)

> print(dat)
                        chemical.structure  endpoint.name  unit.symbol  test.result
1  O=S(=O)(NCB(O)O)c1ccc(-c2nn[nH]n2)cc1Cl             Ki           nM          0.2
